pIC50 overview
- Test system: CA46;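 further: growth inhibition of human CA46 cells, read out by a cell viability assay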
- test: cells
- Type: functional, cell-based
- protocolConditions: Homo sapiens
- Description: SANGER: Inhibition of human CA46 cell growth in a cell viability assay.
pIC50: −log10 of the molar value.
outcomeMeasure: pIC50

INSERT INTO assay_data (compound, systemundertest, outcomemeasure, result) VALUES
  ('CCC1=C[C@@H]2CN(C1)Cc1c([nH]c3ccccc13)[C@@](C(=O)OC)(c1cc3c(cc1OC)N(C)[C@H]1[C@@](O)(C(=O)OC)[C@H](OC(C)=O)[C@]4(CC)C=CCN5CC[C@]31[C@@H]54)C2 [VINORELBINE]', 'CA46', 'pIC50', 7.65),
  ('Cc1cnc(-c2cnc(NCCNc3ccc(C#N)cn3)nc2-c2ccc(Cl)cc2Cl)[nH]1 [LADUVIGLUSIB]', 'CA46', 'pIC50', '< 5.59'),
  ('C[C@]1(O)C[C@@H](c2nc(-c3ccc4ccc(-c5ccccc5)nc4c3)c3c(N)nccn32)C1 [LINSITINIB]', 'CA46', 'pIC50', '< 5.59');
